system: PC-3; assay: NCI tumour cell line growth inhibition, 48 h
Activity calls are given as the source filed them. Cut-off read from the data, not from the text of the source: active = GI50 up to about 1.1 µM and inactive = higher.
Here the recorded GI50 is given for each entry.

Example entries and their recorded answers appear below.
[[record]]
mol = "Cc1cnc2c(c1C)C(=O)c1ccccc1C2=O"
value_kind = "GI50"
result = "26 µM (inactive)"

[[record]]
mol = "O=C1C=Cc2c(Cl)sc(Cl)c21"
value_kind = "GI50"
result = "1.88 µM (inactive)"


Note: attention shifts to another entry.
Kindly note the recorded GI50 for Nc1nnc2ccc(Cl)cc2[n+]1[O-] , which is > 100 µM (inactive)

###

tested on: HOP-62; experiment: NCI tumour cell line growth inhibition, 48 h
Active and inactive are the calls of the source. Cut-off read from the data, not from the text of the source: active = GI50 up to about 1.1 µM and inactive = higher.
Pick one: 1.0 (active), 0.0 (inactive)

[[record]]
molecule = "COc1cc(OC(=O)c2c(O)cc(O)c(O)c2C)cc(C)c1C(=O)Oc1cc(C)c(C(=O)O)c(O)c1"
qualitative_label = 0.0

[[record]]
molecule = "COc1cccc(/C=C/c2ccnc3ccccc23)c1OC"
qualitative_label = 0.0

[[record]]
molecule = "CC1(C)CC(=O)c2c(nc(SSc3nc4c(c(-c5ccccc5)c3C#N)C(=O)CC(C)(C)C4)c(C#N)c2-c2ccccc2)C1"
qualitative_label = 0.0


Call for entry COc1cc2c(cc1OC)C(=O)/C(=C/c1ccc([N+](=O)[O-])cc1)CC2 :
0.0

Call for entry CC1=CC2=C(C(N)=O)C(=O)OC2(C)C(c2ccccc2)C1 (centres undefined) :
0.0

Call for entry CCCCCCCCCCCCc1ccsc1-c1ccc(-c2ccc(-c3sccc3CCCCCCCCCCCC)s2)s1 :
0.0

Call for entry COc1cccc2c1C(=O)c1c(O)c3c(c(O)c1C2=O)C[C@@](O)(C(C)=O)C[C@@H]3OC1CC(O)C(O)C(C)O1 (some centres undefined) :
1.0

###

tested on: DU-145; assay: NCI tumour cell line growth inhibition, 48 h
The source made the active and inactive calls. No stated cut-off is given here; in the data, active = GI50 up to about 1.1 µM and inactive = higher.
value-kind: GI50

Example entries and their recorded answers appear below.
[[record]]
molecule = "CCCCCCCCCCCCc1ccsc1-c1ccc(-c2ccc(-c3sccc3CCCCCCCCCCCC)s2)s1"
value_kind = "GI50"
result = "> 100 µM (inactive)"

[[record]]
molecule = "CC(=O)c1c(C)n(C)c2c1nnc1ccccc12"
value_kind = "GI50"
result = "80.5 µM (inactive)"

[[record]]
molecule = "CC(C)(C)c1ccc(C(O)(c2ccc(C(C)(C)C)cc2)c2ccc(C(C)(C)C)cc2)cc1"
value_kind = "GI50"
result = "> 100 µM (inactive)"

[[record]]
molecule = "O=C1CCCC2=C(N1)C(=O)C=CC2=O"
value_kind = "GI50"
result = "17.5 µM (inactive)"

[[record]]
molecule = "O=C1/C(=C/c2ccccc2O)N=C(c2ccccc2)N1C1Nc2cc3c(cc2S1)NC(N1C(=O)/C(=C/c2ccccc2O)N=C1c1ccccc1)S3 (centres undefined)"
value_kind = "GI50"
result = "42.8 µM (inactive)"


Kindly note the recorded GI50 for CC(=O)C1=C(c2ccccc2)N(C2OC(CO)C(O)C(O)C2O)C(S)=C(C#N)C1c1ccc(Cl)cc1 (centres undefined) , which is 44.8 µM (inactive)

Kindly note the recorded GI50 for CSC[C@H](NC(=O)COc1cccc2cnccc12)C(=O)NC(Cc1ccccc1)C(O)C(=O)N1CSC[C@H]1C(=O)NC(C)(C)C (some centres undefined) , which is 42.8 µM (inactive)

Kindly note the recorded GI50 for O=C(CC1(O)CCCCC1)OC1CCCC1 , which is > 100 µM (inactive)

Kindly note the recorded GI50 for Nc1nnc2ccc(Cl)cc2[n+]1[O-] , which is > 100 µM (inactive)
